target-or-test-system: cyno PRLR on Baf3-cyPRLR cells (cyno)
protocol-text: cell-based or functional assay
result-type: Baf3-cyPRLR proliferation IC50

I would be grateful if you could share the reported Baf3-cyPRLR proliferation IC50 for Ab7 (antibody, V domains shown, murine monoclonal, isotype G1; also called murine Ab7) VH: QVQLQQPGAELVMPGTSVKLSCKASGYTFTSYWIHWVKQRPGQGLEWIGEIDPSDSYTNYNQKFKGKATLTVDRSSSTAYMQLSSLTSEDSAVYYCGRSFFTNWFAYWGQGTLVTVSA VL: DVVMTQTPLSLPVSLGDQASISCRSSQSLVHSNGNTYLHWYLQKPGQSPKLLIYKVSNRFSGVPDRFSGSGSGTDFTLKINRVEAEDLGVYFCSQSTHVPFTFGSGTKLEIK . 0.3 µg/mL

Now the binder LFA102 (antibody, human IgG1, kappa, V domains shown, humanized IgG1 kappa comparator (WO 2008022295)) VH: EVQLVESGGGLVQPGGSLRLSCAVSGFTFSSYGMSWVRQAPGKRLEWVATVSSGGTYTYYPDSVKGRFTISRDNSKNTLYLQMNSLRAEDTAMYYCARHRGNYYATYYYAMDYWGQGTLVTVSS VL: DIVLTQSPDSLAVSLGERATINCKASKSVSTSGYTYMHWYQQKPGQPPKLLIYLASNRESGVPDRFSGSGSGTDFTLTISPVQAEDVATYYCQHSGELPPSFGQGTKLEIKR > 30 µg/mL

Now give it for Ab10 (antibody, V domains shown, murine monoclonal, isotype G2a; also called murine Ab10) VH: EVQLHQSGPELVKPGASVKISCKASGYTFTDYNMHWMKQSHGKSLEWIGYFYPYNGGTGYNQEFKNKATLTVDISSSTAYMELRRLTSEDSAVYYCARGGWGIYYAMDYWGQGTSVTVSS VL: DIQMTQSPASLSASVGETVTITCRASENIYSYLTWYQQKQGKSPQLLVYNAKTLAEGVPSRFSGSGSGTQFSLKINSLQPEDFGSYHCQHHSVTPLTFGAGTKLELK too. > 10 µg/mL
